I'd appreciate it if you could supply IC50 values for the items below.
- study_target: PTK2 enzyme (Homo sapiens)
- Construct: purchased Invitrogen PV3832
- Sequence (Q05397 whole entry): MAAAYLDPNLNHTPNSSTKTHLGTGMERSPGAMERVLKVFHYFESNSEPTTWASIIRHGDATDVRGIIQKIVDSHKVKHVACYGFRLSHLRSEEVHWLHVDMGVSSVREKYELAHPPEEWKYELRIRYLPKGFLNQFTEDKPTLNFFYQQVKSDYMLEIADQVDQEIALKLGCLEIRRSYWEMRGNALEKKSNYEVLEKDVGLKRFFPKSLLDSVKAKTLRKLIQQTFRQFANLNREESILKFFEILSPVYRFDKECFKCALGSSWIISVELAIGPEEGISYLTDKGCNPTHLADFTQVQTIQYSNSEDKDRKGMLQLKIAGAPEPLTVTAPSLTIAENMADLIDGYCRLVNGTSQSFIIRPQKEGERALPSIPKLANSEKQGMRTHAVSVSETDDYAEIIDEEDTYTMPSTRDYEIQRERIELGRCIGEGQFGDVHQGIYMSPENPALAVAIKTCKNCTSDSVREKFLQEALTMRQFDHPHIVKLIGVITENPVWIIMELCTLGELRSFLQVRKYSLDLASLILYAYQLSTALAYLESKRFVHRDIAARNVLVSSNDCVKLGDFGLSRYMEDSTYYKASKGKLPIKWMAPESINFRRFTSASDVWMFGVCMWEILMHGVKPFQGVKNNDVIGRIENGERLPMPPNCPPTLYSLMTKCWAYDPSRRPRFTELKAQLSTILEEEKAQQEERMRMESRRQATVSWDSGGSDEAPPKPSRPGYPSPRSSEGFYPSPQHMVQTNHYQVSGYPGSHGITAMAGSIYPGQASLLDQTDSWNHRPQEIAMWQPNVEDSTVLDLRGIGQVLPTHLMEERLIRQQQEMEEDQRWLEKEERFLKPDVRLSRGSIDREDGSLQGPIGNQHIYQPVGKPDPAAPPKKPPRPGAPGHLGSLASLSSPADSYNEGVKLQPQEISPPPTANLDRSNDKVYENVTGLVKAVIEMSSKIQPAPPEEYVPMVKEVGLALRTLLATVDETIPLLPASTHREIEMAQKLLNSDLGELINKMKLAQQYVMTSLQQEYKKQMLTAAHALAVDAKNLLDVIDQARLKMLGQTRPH
- assay_comment: PTK2 enzyme test, Assay 1 (DELFIA, poly-Glu-Tyr substrate, antibody PT60)
- Assay type: biochemical
- run_parameters: Assay 1 (values without *); 1 h pre-incubation, 2% DMSO
- Method: This test uses active PTK2 enzyme (Invitrogen Code PV3832) and poly-Glu-Tyr (4:1, Sigma P-0275) as the kinase substrate. The kinase activity is detected through the phosphorylation of the substrate in a DELFIA™ assay. The phosphorylated substrate is detected with the europium-labelled phosphotyrosine antibody PT60 (Perkin Elmer, No.: AD00400). […] The time-delayed europium fluorescence is then measured in a microtitre plate reader (VICTOR^3, Perkin Elmer). […]
Write the answer as a number in nM, unit excluded.

get_value(item= CCN1CCC(NC(=O)c2ccc(Nc3ncc(C(F)(F)F)c(N[C@H]4CCCC[C@@H]4NC(C)=O)n3)c(OC)c2)CC1 , readout=IC50) returns 400

get_value(item= COC(=O)N(C)[C@@H]1CCCC[C@H]1Nc1nc(Nc2ccc(C(=O)NC3CCN(C)CC3)cc2OC)ncc1C(F)(F)F , readout=IC50) returns 7

get_value(item= CCC(=O)N[C@@H]1CCCC[C@H]1Nc1nc(Nc2cc(F)c(C(=O)NC3CCN(C)CC3)cc2OC)ncc1C(F)(F)F , readout=IC50) returns 2

get_value(item= CCN1CCC(NC(=O)c2ccc(Nc3ncc(C(F)(F)F)c(N[C@@H]4CCC[C@H]4N(C)S(C)(=O)=O)n3)c(OC)c2)CC1 , readout=IC50) returns 0.73

get_value(item= COc1cc(C(=O)NC2CCN(C)CC2)ccc1Nc1ncc(Cl)c(N[C@@H]2CCCC[C@H]2N(C)S(C)(=O)=O)n1 , readout=IC50) returns 1

get_value(item= CCC(=O)N[C@@H]1CCCC[C@H]1Nc1nc(Nc2ccc(C(=O)NC3CCN(C)CC3)cc2OC)ncc1C(F)(F)F , readout=IC50) returns 1

get_value(item= COc1cc(N2CCN(C)CC2)ccc1Nc1ncc(C(F)(F)F)c(N[C@@H]2CCCC[C@H]2N(C)C(C)=O)n1 , readout=IC50) returns 2

get_value(item= COCCNC(=O)c1ccc(Nc2ncc(Br)c(N[C@@H]3CCCC[C@H]3NC(C)=O)n2)c(OC)c1 , readout=IC50) returns 2

get_value(item= COc1cc([C@@H](O)CO)ccc1Nc1ncc(C(F)(F)F)c(N[C@@H]2CCCC[C@H]2N(C)S(C)(=O)=O)n1 , readout=IC50) returns 0.69

get_value(item= CCN1CCC(NC(=O)c2ccc(Nc3ncc(Cl)c(N[C@@H]4CCCC[C@H]4NC(C)=O)n3)c(OC)c2)CC1 , readout=IC50) returns 1

get_value(item= COc1cc(N2CCN(C(C)(C)C)CC2)ccc1Nc1ncc(Cl)c(N[C@@H]2CCCC[C@H]2N(C)S(C)(=O)=O)n1 , readout=IC50) returns 4

get_value(item= COCC(=O)N(C)[C@@H]1CCCC[C@H]1Nc1nc(Nc2ccc(C(=O)NC3CCN(C)CC3)cc2OC)ncc1C(F)(F)F , readout=IC50) returns 10

get_value(item= COCCNC(=O)c1ccc(Nc2ncc(C(F)(F)F)c(N[C@@H]3CCCC[C@H]3N(C)C(C)=O)n2)c(OC)c1 , readout=IC50) returns 2

get_value(item= COCCNC(=O)c1cc(OC)c(Nc2ncc(C(F)(F)F)c(N[C@@H]3CCCC[C@H]3N(C)S(C)(=O)=O)n2)cc1C , readout=IC50) returns 0.91

get_value(item= COc1cc(C(=O)NC2CCN(C)CC2)ccc1Nc1ncc(C(F)(F)F)c(N[C@@H]2CCCC[C@H]2N(C)C)n1 , readout=IC50) returns 71

get_value(item= CCNC(=O)c1ccc(Nc2ncc(Cl)c(N[C@@H]3CCCC[C@H]3NC(C)=O)n2)c(OC)c1 , readout=IC50) returns 3

get_value(item= CCN1CCC(NC(=O)c2cc(OC)c(Nc3ncc(Cl)c(N[C@@H]4CCCC[C@H]4N(C)S(C)(=O)=O)n3)cc2F)CC1 , readout=IC50) returns 4

get_value(item= COc1cc(C(=O)NC2CCN(C)CC2)c(C)cc1Nc1ncc(C(F)(F)F)c(N[C@@H]2CCCC[C@H]2N(C)S(C)(=O)=O)n1 , readout=IC50) returns 0.86

get_value(item= COc1cc(C(=O)O)ccc1Nc1ncc(C(F)(F)F)c(N[C@@H]2CCCC[C@H]2NC(C)=O)n1 , readout=IC50) returns 9

get_value(item= COc1cc(Nc2ncc(C(F)(F)F)c(N[C@@H]3CCCC[C@H]3N(C)S(C)(=O)=O)n2)ccc1NC(C)=O , readout=IC50) returns 2

get_value(item= COc1cc(C(=O)NC2CCN(C)CC2)ccc1Nc1ncc(C(F)(F)F)c(N[C@@H]2CCCC[C@@H]2N(OC)C(C)=O)n1 , readout=IC50) returns 1

get_value(item= COc1cc(C(=O)NC2CCN(C3CC3)CC2)ccc1Nc1ncc(Br)c(N[C@@H]2CCCC[C@H]2NC(C)=O)n1 , readout=IC50) returns 2

get_value(item= COc1cc(C(=O)NC2CCN(C)CC2)ccc1Nc1ncc(C(F)(F)F)c(N[C@@H]2CCCC[C@H]2NC(=O)CC(C)C)n1 , readout=IC50) returns 32

get_value(item= COc1cc(CN2CCN(C)CC2)ccc1Nc1ncc(C(F)(F)F)c(N[C@@H]2CCCC[C@H]2NC(C)=O)n1 , readout=IC50) returns 1

get_value(item= COc1cc(C(=O)NC2CCN(C)CC2)c(F)cc1Nc1ncc(C(F)(F)F)c(N[C@@H]2CCCC[C@H]2NC(=O)C(C)C)n1 , readout=IC50) returns 3

get_value(item= CCN(CC)C(=O)CN[C@@H]1CCCC[C@H]1Nc1nc(Nc2ccc(C(=O)NC3CCN(C)CC3)cc2OC)ncc1C(F)(F)F , readout=IC50) returns 24

* * *

I'd appreciate it if you could supply pIC50 values for the items below.
- study_target: PTK2 enzyme (Homo sapiens)
- Construct: purchased Invitrogen PV3832
- assay_comment: PTK2 enzyme test, Assay 1 (DELFIA, poly-Glu-Tyr substrate, antibody PT60)
- Assay type: biochemical
- run_parameters: Assay 1 (values without *); 1 h pre-incubation, 2% DMSO
- Protocol: This test uses active PTK2 enzyme (Invitrogen Code PV3832) and poly-Glu-Tyr (4:1, Sigma P-0275) as the kinase substrate. The kinase activity is detected through the phosphorylation of the substrate in a DELFIA™ assay. The phosphorylated substrate is detected with the europium-labelled phosphotyrosine antibody PT60 (Perkin Elmer, No.: AD00400). […] The time-delayed europium fluorescence is then measured in a microtitre plate reader (VICTOR^3, Perkin Elmer). […]
The quantity pIC50 is defined as the negative base-10 logarithm of the molar concentration.

get_value(item= CNC(=O)c1ccc(Nc2ncc(C(F)(F)F)c(N[C@@H]3CCCC[C@H]3NC(C)=O)n2)c(OC)c1 [Example I-39] , readout=pIC50) returns 8.70

get_value(item= COc1cc(C(=O)NC2CCCN(C)C2)ccc1Nc1ncc(C(F)(F)F)c(N[C@@H]2CCCC[C@H]2NC(C)=O)n1 (some centres unmarked) [Example I-41] , readout=pIC50) returns 8.70

get_value(item= COc1cc(C(=O)NC2CCN(C)CC2)ccc1Nc1ncc(C(F)(F)F)c(N[C@@H]2CCCC[C@@H]2NC(C)=O)n1 , readout=pIC50) returns 7.72

get_value(item= COc1cc(C(=O)NC2CCOCC2)ccc1Nc1ncc(C(F)(F)F)c(N[C@H]2CCCC[C@@H]2NC(C)=O)n1 , readout=pIC50) returns 6.40

get_value(item= CCNC(=O)c1ccc(Nc2ncc(Br)c(N[C@@H]3CCCC[C@H]3NC(C)=O)n2)c(OC)c1 , readout=pIC50) returns 8.70

get_value(item= COc1cc(C(=O)NC2CCN(C)CC2)ccc1Nc1ncc(C(F)(F)F)c(N[C@@H]2CCCC[C@H]2N(C)C(=O)C2CCC2)n1 , readout=pIC50) returns 7.43

get_value(item= CCN(CC)C(=O)CN[C@@H]1CCCC[C@H]1Nc1nc(Nc2cc(F)c(C(=O)NC3CCN(C)CC3)cc2OC)ncc1C(F)(F)F , readout=pIC50) returns 7.62

get_value(item= COc1cc(C(=O)NCCN(C)C)c(Cl)cc1Nc1ncc(Br)c(N[C@@H]2CCCC[C@H]2N(C)S(C)(=O)=O)n1 , readout=pIC50) returns 8.70

get_value(item= CCN1CCC(NC(=O)c2cc(OC)c(Nc3ncc(C(F)(F)F)c(N[C@@H]4CCCC[C@H]4N(C)C(C)=O)n3)cc2F)CC1 , readout=pIC50) returns 9.00

get_value(item= COc1cc(C(=O)NC2CCCN(C)C2)ccc1Nc1ncc(Cl)c(N[C@@H]2CCCC[C@H]2N(C)S(C)(=O)=O)n1 (some centres unmarked) , readout=pIC50) returns 8.70

get_value(item= CNCc1ccc(Nc2ncc(C(F)(F)F)c(N[C@@H]3CCCC[C@H]3NC(=O)C(C)C)n2)c(OC)c1 , readout=pIC50) returns 8.52

get_value(item= CCNC(=O)N[C@@H]1CCCC[C@H]1Nc1nc(Nc2ccc(C(=O)NC3CCN(C)CC3)cc2OC)ncc1C(F)(F)F , readout=pIC50) returns 8.52

get_value(item= COc1cc(C(=O)NC2CCN(C)CC2)ccc1Nc1ncc(C(F)(F)F)c(N[C@@H]2CCCC[C@H]2N(CC2CC2)C(C)=O)n1 , readout=pIC50) returns 8.15

get_value(item= CNCc1ccc(Nc2ncc(C(F)(F)F)c(N[C@@H]3CCCC[C@H]3NC(=O)C3CCC3)n2)c(OC)c1 , readout=pIC50) returns 8.52
